target: MAGI3_2, Q5TCQ9; experiment: holdup assay; set-up: key: below the threshold = too weak to quantify, mostly under pKd 3.1 to 4; conditions: plain residues with an end cap or a label only (N-terminal biotin on a linker: ado-ado)
Sequence (Q5TCQ9 398-503): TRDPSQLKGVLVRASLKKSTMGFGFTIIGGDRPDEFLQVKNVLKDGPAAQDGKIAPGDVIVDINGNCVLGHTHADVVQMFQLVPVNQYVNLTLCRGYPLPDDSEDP
PARAMETER: pKd

Solved cases below.
LGRSTPQSEV [DGKH, Q86XP1]; 4.04
HLRARKSEWV [GJD4, Q96KN9]; 4.04
PRAEAEDSFL [PDGFRB, P09619]; below the threshold
KSGKQTMLVV [TRIM29, Q14134]; 3.5
QGLAERISVL [PRKD2, Q9BZL6]; below the threshold
CLREWCDAFL [BANF1, O75531]; below the threshold

Reported pKd for YLEPVLSSEL [ATP2A2, P16615;P16615-3] : what is it? below the threshold

Reported pKd for LKVPPEERLI [CRB2, Q5IJ48] : what is it? below the threshold

Reported pKd for TASPAKETSF [SLC2A7, Q6PXP3] : what is it? below the threshold

Reported pKd for QKNRKAQEDL [CES3, Q6UWW8] : what is it? below the threshold

Reported pKd for GQEEQVTTRL [TRPC5, Q9UL62] : what is it? below the threshold
